Provide the reported log10 koff of each item.
Target: T1, human C5 R885C-mmh (human, UniProt P01031 19-1676)
T1 construct: also called human C5 variant R885C
Assay: SPR, mAb captured via anti-hFc, 25C
Units before log transform: s⁻¹; reported quantity: koff; transform: log10.

Before answering, review these 3 worked examples.
BINDER: H4H12170P (antibody, human IgG4, V domains shown, Human IgG4 Fc with S108P hinge mutation (H4H)) VH: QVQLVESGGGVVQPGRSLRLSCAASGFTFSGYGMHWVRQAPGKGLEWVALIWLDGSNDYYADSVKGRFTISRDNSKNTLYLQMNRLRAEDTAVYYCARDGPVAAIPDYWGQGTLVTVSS VL: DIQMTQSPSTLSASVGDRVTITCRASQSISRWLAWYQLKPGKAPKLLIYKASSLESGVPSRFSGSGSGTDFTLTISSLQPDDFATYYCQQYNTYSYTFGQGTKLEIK
QUANTITATIVE READOUT: -3.80

BINDER: H4H12169P (antibody, human IgG4, V domains shown, Human IgG4 Fc with S108P hinge mutation (H4H)) VH: EVQLVESGGGLAQPGGSLRLSCAASGFTFRSYAMSWVRQAPGKGPEWVSGIGGNGVTTYYADSVKGRFTISRDNSKNTLFLQMNSLRAEDTAVYYCVQGGLGGYFTGYWGQGTLVTVSS VL: DIQMTQSPSSLSASVGDRVTITCRASQSISTYLNWYQQNPGKAPKLLIFDASSLQSGVPSRFSGSGSGTDFTLTIRGLQPEDFATYYCQQSYSAPLTFGGGTKVEIK
QUANTITATIVE READOUT: -4.16

BINDER: H4H12167P (antibody, human IgG4, V domains shown, Human IgG4 Fc with S108P hinge mutation (H4H)) VH: QVQLVESGGGLVKPGGSLRLSCAASGFTFSDSYMSWIRQAPGKGLEWISYIGSSGNTFYYADSVKGRFTISRDNANNLLYLQMTSLRAEDTAVYYCAREEGDFWSAVDSWGQGTLVTVSS VL: DIQLTQSPSFLSASVGDRVTITCWASQGISSYLAWYQQKPGKAPKLLIHTASTLQSGVPSRFSGSGSGTEFTLTISNLQPEDFATYYCQQLNSYPFTFGPGTKVDIK
QUANTITATIVE READOUT: -3.53

Okay, here is my list. What is log10 koff for each of these?
1. H4H11683N (antibody, V domains shown, also called H2M11683N) VH: QVQLVESGGGVVQPGRSLRLSCVASGFTFSSYGIHWVRQAPGKGLEWVAVIWDDGNNINYSDSVKGRFIISRDNSRKTVYLQMNSLRGEDTAVYYCARDAPIAPVPDYWGQGTLVTVSS VL: DIQMTQSPSTLSASVGDRVTITCRASQSISSWLAWYQQKPGKAPKLLIYKASSLDTGVPSRFSGSGSGTEFTLTISSLQPDDFATYYCQQYNTYSYTFGLGTKLEIK
2. H4H12175P (antibody, human IgG4, V domains shown, Human IgG4 Fc with S108P hinge mutation (H4H)) VH: EVQLVESGGGVVQPGGSLRLSCAASGFTFNDYAMHWVRQAPGKGLEWVSLISGDGGNTYYADSVKGRLTISRDNSKNSLYLQMNSLRTEDTALYYCAKDKGWNFGYFDLWGRGTLVTVSS VL: DIQMTQSPSSLSTSVGDRVTITCRASQNIDTYLNWYQQKPGKAPKLLIYDASSLQSGVPSRFSGSGSGTDFTLTITSLQPEDFATYYCQQNDNILHPLTFGGGTKVEIK

1: -3.62; 2: -1.81

Reference for the values: patent US20170355757A1
